A collection of compounds and their measured Percent Effect
- Study target: Proteasome subunit beta (Trypanosoma cruzi)
- Test description: Trypanosoma cruzi proteasome chymotrypsin-like activity (TcProtChymo) assay.
- Type: functional
- Parameters: scale not given: in the data most compounds retested in dose-response had high values
- Test context: 9.37 µM
Quantity: Percent Effect (%)

compound=NC(=O)NCC(=O)N1C[C@H]2CC[C@@H]1CN(C1Cc3ccccc3C1)C2 study_target="Proteasome subunit beta (Trypanosoma cruzi)" test_result=14
compound="Cc1nc(C)n(CC2CCCN(CC(=O)Nc3nncs3)C2)n1 (configuration not stated)" study_target="Proteasome subunit beta (Trypanosoma cruzi)" test_result=4.84
compound="COc1ccc(CCN2CCCC(Cn3nc(C)nc3C)C2)cc1 (configuration not stated)" study_target="Proteasome subunit beta (Trypanosoma cruzi)" test_result=8.58
compound="Cc1ccc2oc(C(=O)N3CCCC(c4noc(C)n4)C3)cc2n1 (configuration not stated)" study_target="Proteasome subunit beta (Trypanosoma cruzi)" test_result=3.84
compound=CC(=O)N1CCCn2nc(CNS(=O)(=O)c3cc(C)cs3)cc2C1 study_target="Proteasome subunit beta (Trypanosoma cruzi)" test_result=4.11
compound=CC(C)(C)c1ncc2c(n1)CN(C(=O)c1ccc(-c3nc[nH]n3)cc1)C2 study_target="Proteasome subunit beta (Trypanosoma cruzi)" test_result=6.76
compound="CC1CN(CC2CCCCC2)CCN1c1ccc2nncn2n1 (configuration not stated)" study_target="Proteasome subunit beta (Trypanosoma cruzi)" test_result=16.1
compound="COc1ccccc1NC(=O)CSC1CCc2ccccc2NC1=O (configuration not stated)" study_target="Proteasome subunit beta (Trypanosoma cruzi)" test_result=18.3
compound="COc1cc(CNC(=O)C2CC(=O)N(C(C)C)C2)ccn1 (configuration not stated)" study_target="Proteasome subunit beta (Trypanosoma cruzi)" test_result=12.7
compound="O=C(NCCn1ccnc1)N1CCCC1c1ccsc1 (configuration not stated)" study_target="Proteasome subunit beta (Trypanosoma cruzi)" test_result=17.7
compound="CCOCC1CN(C(=O)c2cscn2)Cc2nnn(CC3CC3)c21 (configuration not stated)" study_target="Proteasome subunit beta (Trypanosoma cruzi)" test_result=18.4
compound="O=C(NCC1CC1)C1CN(C(=O)c2ccncc2)CC12CCOCC2 (configuration not stated)" study_target="Proteasome subunit beta (Trypanosoma cruzi)" test_result=17.6
